# key: entry, value: Plant response rating, Morningglory
tested on: morningglory (Ipomoea spp.); test: Test A pre-/postemergence plant response; format: in vivo; conditions: Preemergence, 500 g ai/ha; visual injury, 0 to 100 scale (0 no effect, 100 complete control), approx. ten days

entry_smiles: CCCc1ncc(C(=O)C2=C(O)CCCC2=O)c(=O)n1Cc1ccc(OC)c(OC)c1
Plant response rating, Morningglory: 10
--
entry_smiles: CCCCn1c(-c2cccc(Br)c2)ncc(C(=O)C2=C(O)CCCC2=O)c1=O
Plant response rating, Morningglory: 0
--
entry_smiles: CCCc1ncc(C(=O)C2=C(O)CCCC2=O)c(=O)n1Cc1cccc(OC)c1
Plant response rating, Morningglory: 0
--
entry_smiles: O=C1CCCC(O)=C1C(=O)c1cnc(-c2ccccc2)n(-c2ccc(F)cc2F)c1=O
Plant response rating, Morningglory: 80
--
entry_smiles: CCn1ncc(C(=O)c2cnc(-c3ccccc3)n(-c3ccccc3)c2=O)c1OS(=O)(=O)c1ccc(C)cc1
Plant response rating, Morningglory: 0
--
entry_smiles: CCCn1c(-c2ccc(F)cc2)ncc(C(=O)C2=C(O)CCCC2=O)c1=O
Plant response rating, Morningglory: 80
--
entry_smiles: CCCCn1c(-c2ccccc2)ncc(C(=O)C2=C(O)CCCC2=O)c1=O
Plant response rating, Morningglory: 60
--
entry_smiles: Cc1ccc(-n2c(-c3ccccc3)ncc(C(=O)C3=C(O)CCCC3=O)c2=O)c(C)c1
Plant response rating, Morningglory: 80

----------
test system: goosegrass (Eleusine indica); assay: Test B pre-/postemergence plant response; assay type: in vivo; settings: 62 g ai/ha, postemergence; 0 is no effect, 100 is complete control; 13 to 15 days
# key: entry, value: Goosegrass plant response rating (0 to 100 scale)
measure: Goosegrass plant response rating (0 to 100 scale)

compound: CCCc1ncc(C(=O)C2=C(O)CCCC2=O)c(=O)n1CC1CCCO1 (centres unmarked) [Compound 74]
measured_target: goosegrass (Eleusine indica)
numeric_result: 75
//
compound: O=C1CCCC(OC(=O)C2CC2)=C1C(=O)c1cnc(-c2ccccc2)n(-c2ccccc2)c1=O [Compound 88]
measured_target: goosegrass (Eleusine indica)
numeric_result: 70
//
compound: COCCCn1c(-c2cccc(Br)c2)ncc(C(=O)C2=C(O)CCCC2=O)c1=O [Compound 140]
measured_target: goosegrass (Eleusine indica)
numeric_result: 65
//
compound: COCCn1c(-c2cccc(Cl)c2)ncc(C(=O)C2=C(O)CCCC2=O)c1=O [Compound 147]
measured_target: goosegrass (Eleusine indica)
numeric_result: 70
//
compound: CCCCn1c(-c2cccc(Cl)c2)ncc(C(=O)C2=C(O)CCCC2=O)c1=O [Compound 146]
measured_target: goosegrass (Eleusine indica)
numeric_result: 90
//
compound: O=C1CCCC(O)=C1C(=O)c1cnc(-c2ccccc2)n(C2CCCC2)c1=O [Compound 131]
measured_target: goosegrass (Eleusine indica)
numeric_result: 65
//
compound: CCCn1c(-c2cccc(Br)c2)ncc(C(=O)C2=C(O)CCCC2=O)c1=O [Compound 141]
measured_target: goosegrass (Eleusine indica)
numeric_result: 75
//
compound: Cc1ccc(-c2ncc(C(=O)C3=C(O)CCCC3=O)c(=O)n2-c2ccccc2)cc1 [Compound 80]
measured_target: goosegrass (Eleusine indica)
numeric_result: 75

----------
system: nightshade (eastern black nightshade, Solanum ptycanthum); assay: Test B pre-/postemergence plant response; format: in vivo; settings: Preemergence, 125 g ai/ha; scale 0 to 100, 0 no effect, 100 complete control

entry_smiles: CCCn1c(-c2cccs2)ncc(C(=O)C2=C(O)CCCC2=O)c1=O
Plant response rating, Nightshade: 98

entry_smiles: Cc1cc(-n2c(-c3ccccc3)ncc(C(=O)C3=C(O)CCCC3=O)c2=O)ccc1F
Plant response rating, Nightshade: 100

entry_smiles: CCCCc1ncc(C(=O)C2=C(O)CCCC2=O)c(=O)n1-c1cccc(C)c1
Plant response rating, Nightshade: 98

entry_smiles: COCCn1c(-c2cc(F)cc(F)c2)ncc(C(=O)C2=C(O)CCCC2=O)c1=O
Plant response rating, Nightshade: 98

entry_smiles: CCc1ccccc1-n1c(-c2ccccc2)ncc(C(=O)C2=C(O)CCCC2=O)c1=O
Plant response rating, Nightshade: 100

entry_smiles: O=C1CCCC(O)=C1C(=O)c1cnc(-c2cccc(Cl)c2)n(-c2ccc(Cl)cc2)c1=O
Plant response rating, Nightshade: 95
